Source of measurements: ChEMBL document CHEMBL4043178

Assay: Half life in mouse pooled liver microsomes at 1 uM in presence of NADPH by LC/MS/MS method
Format: ADME, microsome
Conditions: pooled liver microsomes
reportedEndpoint: half-life at 1 µM

Fill blank: measured half-life at 1 µM of the compound CC(=O)Oc1cc(C)cc(C)c1C(C)(C)CC(=O)NC/C=C\CN(C)C[C@H]1O[C@@H](n2cnc3c(N)ncnc32)[C@@H]2OC(C)(C)O[C@@H]21 is ____.
≤ 2.5 min

###

We begin with a simple list: items and their reported pEC50.
Tested on: Trypanosoma brucei
Test: Antitrypanosomal activity against Trypanosoma brucei Lister 427 bloodstream forms assessed as inhibition of parasite growth incubated for 48 hrs by ATP-bioluminescence cell viability assay
Type: functional
Settings: Lister 427, 48 h
pEC50 is a log-scale quantity: -log10 of the concentration expressed in molar.

Fill blank: measured pEC50 of the molecule CNc1ncnc2c1ncn2[C@@H]1O[C@H](CN(C)C/C=C\CN)[C@@H](O)[C@H]1O is ____.
6.43

Check CCOc1ncnc2c1ncn2[C@@H]1O[C@H](CN(C)C/C=C\CN)[C@@H](O)[C@H]1O too.
6.44

Check Cc1nc2c(N)ncnc2n1[C@@H]1O[C@H](CN(C/C=C\CNC(=O)OC(C)(C)C)C2CC2)[C@H]2OC(C)(C)O[C@H]21 too.
5.52

Further cases:
Fill blank: measured pEC50 of the molecule Cc1nc2c(N)ncnc2n1[C@@H]1O[C@H](CN(C)C/C=C\CNC(=O)OCc2ccccc2)[C@@H](O)[C@H]1O is ____.
5.59
